measurementTarget: T1, human TMEM106B (human, UniProt Q9NUM4 2-274)
T1 construct: full-length, transiently expressed on HEK293 cells, or natively expressed on HeLa, U251 and A549 cells (the cell is named under assay); also the source of the Pepscan peptides; also called huTMEM106B; huTMEM
assayNotes: FACS HEK+huTMEM 0.1 ug/ml (2nd column so headed);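 further: flow cytometry binding of purified anti-TMEM106B mouse IgG to HEK293 cells transiently transfected with TMEM106B, read as median fluorescence intensity on live (propidium iodide-negative) cells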
Each record is given condition met if its reported MFI is strictly below 3000 MFI. Records at or above 3000 MFI are given condition not met.

Query: Please state whether MFI is below 3000 MFI for TM-12 (antibody, V domains shown) VH: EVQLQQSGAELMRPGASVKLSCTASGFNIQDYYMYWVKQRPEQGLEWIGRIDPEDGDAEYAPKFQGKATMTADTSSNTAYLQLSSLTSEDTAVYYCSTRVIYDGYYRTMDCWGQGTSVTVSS VL: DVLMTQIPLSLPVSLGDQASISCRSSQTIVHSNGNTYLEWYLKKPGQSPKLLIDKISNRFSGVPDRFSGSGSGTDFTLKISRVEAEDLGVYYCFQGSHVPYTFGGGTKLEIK
Reply: condition not met

Query: Quick check: does TM-52 (antibody, V domains shown, mouse IgG (hybridoma)) VH: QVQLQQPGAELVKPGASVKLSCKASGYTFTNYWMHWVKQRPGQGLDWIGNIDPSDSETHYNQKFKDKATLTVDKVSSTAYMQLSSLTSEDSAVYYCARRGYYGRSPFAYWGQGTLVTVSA VL: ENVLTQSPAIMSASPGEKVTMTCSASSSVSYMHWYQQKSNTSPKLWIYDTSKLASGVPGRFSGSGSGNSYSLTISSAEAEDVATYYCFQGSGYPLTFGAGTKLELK have MFI under 3000 MFI?
Reply: condition met

Query: In the record for TM-49 (antibody, V domains shown, mouse IgG (hybridoma)) VH: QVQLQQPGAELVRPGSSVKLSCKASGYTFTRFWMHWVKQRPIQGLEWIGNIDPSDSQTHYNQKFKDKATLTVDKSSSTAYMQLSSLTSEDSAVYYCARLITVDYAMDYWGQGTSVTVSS VL: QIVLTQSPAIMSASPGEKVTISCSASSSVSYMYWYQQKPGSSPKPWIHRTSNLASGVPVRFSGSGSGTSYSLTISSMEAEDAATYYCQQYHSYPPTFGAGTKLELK , is MFI less than 3000 MFI?
Reply: condition met

Query: I wonder whether TM-5 (antibody, V domains shown) VH: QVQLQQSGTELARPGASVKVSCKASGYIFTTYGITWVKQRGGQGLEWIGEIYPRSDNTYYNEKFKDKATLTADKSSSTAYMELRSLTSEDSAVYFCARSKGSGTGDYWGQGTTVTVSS VL: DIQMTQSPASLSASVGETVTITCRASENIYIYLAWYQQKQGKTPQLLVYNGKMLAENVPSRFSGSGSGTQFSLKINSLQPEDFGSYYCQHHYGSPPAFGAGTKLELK has MFI below 3000 MFI. Can you tell?
Reply: condition met

Query: A record lists TM-13 (antibody, V domains shown) VH: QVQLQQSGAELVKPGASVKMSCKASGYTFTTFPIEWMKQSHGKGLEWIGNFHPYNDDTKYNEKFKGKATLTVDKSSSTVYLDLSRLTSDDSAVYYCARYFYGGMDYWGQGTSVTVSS VL: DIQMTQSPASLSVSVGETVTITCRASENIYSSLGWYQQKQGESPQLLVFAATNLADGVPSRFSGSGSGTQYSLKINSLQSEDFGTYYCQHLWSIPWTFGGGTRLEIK . Is its MFI below 3000 MFI?
Reply: condition met
